Target: Mcl-1 protein (UniProtKB Q07820) (Homo sapiens (Human), UniProt Q07820)
Sequence (Q07820 whole entry): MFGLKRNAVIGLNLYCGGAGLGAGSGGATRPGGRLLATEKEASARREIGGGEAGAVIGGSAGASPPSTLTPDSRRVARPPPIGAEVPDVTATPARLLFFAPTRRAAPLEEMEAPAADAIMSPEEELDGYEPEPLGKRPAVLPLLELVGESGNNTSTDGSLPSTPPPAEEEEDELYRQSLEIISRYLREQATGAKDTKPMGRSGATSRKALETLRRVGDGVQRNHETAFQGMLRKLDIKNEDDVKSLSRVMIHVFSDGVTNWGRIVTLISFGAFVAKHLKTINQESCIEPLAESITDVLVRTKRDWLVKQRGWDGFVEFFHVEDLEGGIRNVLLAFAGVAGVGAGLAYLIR
Experiment: Inhibition of Mcl-1 by the fluorescence polarisation assay (Example A, Method A)
Conditions: fluorescence polarization assay
REPORTED ENDPOINT: Ki (µM)

[in] Fill in the blank: the reported Ki of O=C(O)[C@]1(Nc2cccc(Cl)c2)CC[C@@]2(CC1)c1ccccc1CC2CCOc1cccc2[nH]ccc12 (some centres unmarked) is ____.
[out] 0.074

I: COc1cc(OC)cc([C@@H]2Cc3ccccc3[C@]23CC[C@@](Nc2cccc(Cl)c2)(C(=O)O)CC3)c1
II: O=C(O)[C@]1(Nc2cccc(Cl)c2)CC[C@@]2(CC1)c1ccccc1CC2CCCOc1ccncc1C1CC1 (some centres unmarked)
[in] For the pair I and II , which member has the lower Ki number? Answer = label.
[out] II
(II: 0.0491 µM, I: 2.44 µM)
